System: human lung fibroblast cell line WI-26-VA4
Test: In vitro cytotoxicity test, MTT colorimetric assay
Format: cell-based
Settings: WI26VA4, 48 h, read-out: IC50 (μM) ± SD Wi-26VA4
measure_name: IC50 (µM)
Use µM as the unit, but write only the number.

INPUT: Hello, I am looking for reported IC50 with human lung fibroblast cell line WI-26-VA4 for FCCCCCCCCCCOCCCc1cccnc1 . Could you help?
OUTPUT: 28.2

meta.source: paper PMC6045394
